FYI, the data here is from PubChem BioAssay.

test: CREB reporter modulators without forskolin, primary screen, cell-based, PC12, CRE-LacZ reporter, unstimulated (AID 1145); details: no forskolin, luminescence, 4.5 h, higher = more signal, called active from +8 up or from −8 down
Would you kindly list z-score for each of these compounds?
One number for each entry.

Query (compound): `C=C(C(=O)CC[C@H](OC(=O)c1ccccc1-c1ccccc1C(=O)O)c1ccc(CO)o1)C(C)C` ; field requested: z-score 0.406

Query (compound): `CCOC(=O)C[C@H]1[C@H](OC(=O)Cc2ccc3c(c2)OCO3)[C@@H](NC(=O)c2ccc3ccccc3c2)c2cc(OCCCO)ccc2N1C(=O)Cc1ccc(OC)cc1` ; field requested: z-score 4.83

Query (compound): CN1C2C=C(c3ccc(CO)cc3)C(C3C(=O)N(C(N)=O)C(=O)C32)C1c1cccs1 (centres undefined) ; field requested: z-score 2.09

Next, consider the following compound.
Query (compound): `COc1ccc([Si](C)(C)[C@H]2[C@H](CC(=O)N(CCO)Cc3ccccc3)O[C@@]3(C(=O)N(C)c4ccccc43)[C@@H]2C)cc1` ; field requested: z-score 4.69
